Tested on: HeLa Kyoto
experiment_notes: melting temperature (median over replicates), in situ; higher = more thermally stable
condition_label: cell cycle stage: mitosis
Exercise: for every item that follows, state its recorded melting temperature.
Answers are plain numbers, in °C.

MLLSIGMLMLSATQVYTILTVQLFAFLNLLPVEADILAYNFENASQTFDDLPARFGYRLPAEGLKGFLINSKPENACEPIVPPPVKDNSSGTFIVLIRRLDCNFDIKVLNAQRAGYKAAIVHNVDSDDLISMGSNDIEVLKKIDIPSVFIGESSANSLKDEFTYEKGGHLILVPEFSLPLEYYLIPFLIIVGICLILIVIFMITKFVQDRHRARRNRLRKDQLKKLPVHKFKKGDEYDVCAICLDEYEDGDKLRILPCSHAYHCKCVDPWLTKTKKTCPVCKQKVVPSQGDSDSDTDSSQEENEVTEHTPLLRPLASVSAQSFGALSESRSHQNMTESSDYEEDDNEDTDSSDAENEINEHDVVVQLQPNGERDYNIANTV [RNF13] ... 64.3
MTDDKDVLRDVWFGRIPTCFTLYQDEITEREAEPYYLLLPRVSYLTLVTDKVKKHFQKVMRQEDISEIWFEYEGTPLKWHYPIGLLFDLLASSSALPWNITVHFKSFPEKDLLHCPSKDAIEAHFMSCMKEADALKHKSQVINEMQKKDHKQLWMGLQNDRFDQFWAINRKLMEYPAEENGFRYIPFRIYQTTTERPFIQKLFRPVAADGQLHTLGDLLKEVCPSAIDPEDGEKKNQVMIHGIEPMLETPLQWLSEHLSYPDNFLHISIIPQPTD [ATG5] ... 53.6
MVVFGYEAGTKPRDSGVVPVGTEEAPKVFKMAASMHGQPSPSLEDAKLRRPMVIEIIEKNFDYLRKEMTQNIYQMATFGTTAGFSGIFSNFLFRRCFKVKHDALKTYASLATLPFLSTVVTDKLFVIDALYSDNISKENCVFRSSLIGIVCGVFYPSSLAFTKNGRLATKYHTVPLPPKGRVLIHWMTLCQTQMKLMAIPLVFQIMFGILNGLYHYAVFEETLEKTIHEE [TMEM126B] ... 53.5
RABGAP1 ... 50.5

For the 2 substances below, give their melting temperature values.
1. MKMKLFQTICRQLRSSKFSVESAALVAFSTSSYSCGRKKKVNPYEEVDQEKYSNLVQSVLSSRGVAQTPGSVEEDALLCGPVSKHKLPNQGEDRRVPQNWFPIFNPERSDKPNASDPSVPLKIPLQRNVIPSVTRVLQQTMTKQQVFLLERWKQRMILELGEDGFKEYTSNVFLQGKRFHEALESILSPQETLKERDENLLKSGYIESVQHILKDVSGVRALESAVQHETLNYIGLLDCVAEYQGKLCVIDWKTSEKPKPFIQSTFDNPLQVVAYMGAMNHDTNYSFQVQCGLIVVAYKDGSPAHPHFMDAELCSQYWTKWLLRLEEYTEKKKNQNIQKPEYSE [MGME1]
2. MSSTLAKIAEIEAEMARTQKNKATAHHLGLLKARLAKLRRELITPKGGGGGGPGEGFDVAKTGDARIGFVGFPSVGKSTLLSNLAGVYSEVAAYEFTTLTTVPGVIRYKGAKIQLLDLPGIIEGAKDGKGRGRQVIAVARTCNLILIVLDVLKPLGHKKIIENELEGFGIRLNSKPPNIGFKKKDKGGINLTATCPQSELDAETVKSILAEYKIHNADVTLRSDATADDLIDVVEGNRVYIPCIYVLNKIDQISIEELDIIYKVPHCVPISAHHRWNFDDLLEKIWDYLKLVRIYTKPKGQLPDYTSPVVLPYSRTTVEDFCMKIHKNLIKEFKYALVWGLSVKHNPQKVGKDHTLEDEDVIQIVKK [DRG1]

Result ::
53.5
53.4

###

Tested on: HeLa Kyoto
experiment_notes: solubility in G1/S (NP-40 vs SDS abundance) (log2 ratio); higher = more soluble
condition_label: cell cycle stage: G1/S
Exercise: for every item that follows, state its recorded solubility in G1/S (log2).
Give bare numbers.

MFISLWEFFYGHFFRFWMKWLLRQMTGKCELQRIFDTYVGAQRTHRIENSLTYSKNKVLQKATHVVQSEVDKYVDDIMKEKNINPEKDASFKICMKMCLLQITGYKQLYLDVESVRKRPYDSDNLQHEELLMKLWNLLMPTKKLNARISKQWAEIGFQGDDPKTDFRGMGILGLINLVYFSENYTSEAHQILSRSNHPKLGYSYAIVGINLTEMAYSLLKSEALKFHLYNLVPGIPTMEHFHQFYCYLVYEFDKFWFEEEPESIMYFNLYREKFHEKIKGLLLDCNVALTLKV [ELMOD2] ... -0.348

Kindly review the next sequence as well.
Query :: Entry MGKGDPKKPRGKMSSYAFFVQTCREEHKKKHPDASVNFSEFSKKCSERWKTMSAKEKGKFEDMAKADKARYEREMKTYIPPKGETKKKFKDPNAPKRPPSAFFLFCSEYRPKIKGEHPGLSIGDVAKKLGEMWNNTAADDKQPYEKKAAKLKEKYEKDIAAYRAKGKPDAAKKGVVKAEKSKKKKEEEEDEEDEEDEEEEEDEEDEDEEEDDDDE [HMGB1] has what solubility in G1/S (log2)?
Result :: 0.464

###

Tested on: HeLa Kyoto
experiment_notes: thermal stability score vs G1/S (z-score of summed log2 fold changes over temperatures); higher = more thermally stable than in G1/S
condition_label: cell cycle stage: mitosis
Is thermal stability score at least -1? Then yes (1). If not, no (0).

// known answers, use as guide
MSAPLDAALHALQEEQARLKMRLWDLQQLRKELGDSPKDKVPFSVPKIPLVFRGHTQQDPEVPKSLVSNLRIHCPLLAGSALITFDDPKVAEQVLQQKEHTINMEECRLRVQVQPLELPMVTTIQMSSQLSGRRVLVTGFPASLRLSEEELLDKLEIFFGKTRNGGGDVDVRELLPGSVMLGFARDGVAQRLCQIGQFTVPLGGQQVPLRVSPYVNGEIQKAEIRSQPVPRSVLVLNIPDILDGPELHDVLEIHFQKPTRGGGEVEALTVVPQGQQGLAVFTSESG [IFI35] ... no (0)
MASTSYDYCRVPMEDGDKRCKLLLGIGILVLLIIVILGVPLIIFTIKANSEACRDGLRAVMECRNVTHLLQQELTEAQKGFQDVEAQAATCNHTVMALMASLDAEKAQGQKKVEELEGEITTLNHKLQDASAEVERLRRENQVLSVRIADKKYYPSSQDSSSAAAPQLLIVLLGLSALLQ [BST2] ... no (0)
MAAAAAAAVAGVGRGGGGAEPRQERSRARGWAGVERSEGRRMEPGEELEEEGSPGGREDGFTAEHLAAEAMAADMDPWLVFDARTTPATELDAWLAKYPPSQVTRYGDPGSPNSEPVGWIAVYGQGYSPNSGDVQGLQAAWEALQTSGRPITPGTLRQLAITHHVLSGKWLMHLAPGFKLDHAWAGIARAVVEGQLQVAKVSPRAKEGGRQVICVYTDDFTDRLGVLEADSAIRAAGIKCLLTYKPDVYTYLGIYRANRWHLCPTLYESRFQLGGSARGSRVLDRANNVELT [C11ORF68] ... yes (1)

Query :: API: above_or_equal(metric=thermal stability score, cutoff=-1) for item MATALALRSLYRARPSLRCPPVELPWAPRRGHRLSPADDELYQRTRISLLQREAAQAMYIDSYNSRGFMINGNRVLGPCALLPHSVVQWNVGSHQDITEDSFSLFWLLEPRIEIVVVGTGDRTERLQSQVLQAMRQRGIAVEVQDTPNACATFNFLCHEGRVTGAALIPPPGGTSLTSLGQAAQ [NDUFAF3]
Result :: no (0)

Query :: API: above_or_equal(metric=thermal stability score, cutoff=-1) for item MAILFAVVARGTTILAKHAWCGGNFLEVTEQILAKIPSENNKLTYSHGNYLFHYICQDRIVYLCITDDDFERSRAFNFLNEIKKRFQTTYGSRAQTALPYAMNSEFSSVLAAQLKHHSENKGLDKVMETQAQVDELKGIMVRNIDLVAQRGERLELLIDKTENLVDSSVTFKTTSRNLARAMCMKNLKLTIIIIIVSIVFIYIIVSPLCGGFTWPSCVKK [VAMP7]
Result :: yes (1)

###

Tested on: HeLa Kyoto
experiment_notes: solubility change mitosis vs G1/S (difference of NP-40 vs SDS log2 ratios) (log2 ratio difference); higher = more soluble in mitosis
quantity_name: solubility change mitosis (log2)
Numbers only.

Record excerpt, results attached:
MSRPVRNRKVVDYSQFQESDDADEDYGRDSGPPTKKIRSSPREAKNKRRSGKNSQEDSEDSEDKDVKTKKDDSHSAEDSEDEKEDHKNVRQQRQAASKAASKQREMLMEDVGSEEEQEEEDEAPFQEKDSGSDEDFLMEDDDDSDYGSSKKKNKKMVKKSKPERKEKKMPKPRLKATVTPSPVKGKGKVGRPTASKASKEKTPSPKEEDEEPESPPEKKTSTSPPPEKSGDEGSEDEAPSGED [NUCKS1] ... 0.307
MTSELDIFVGNTTLIDEDVYRLWLDGYSVTDAVALRVRSGILEQTGATAAVLQSDTMDHYRTFHMLERLLHAPPKLLHQLIFQIPPSRQALLIERYYAFDEAFVREVLGKKLSKGTKKDLDDISTKTGITLKSCRRQFDNFKRVFKVVEEMRGSLVDNIQQHFLLSDRLARDYAAIVFFANNRFETGKKKLQYLSFGDFAFCAELMIQNWTLGAVGEAPTDPDSQMDDMDMDLDKEFLQDLKELKVLVADKDLLDLHKSLVCTALRGKLGVFSEMEANFKNLSRGLVNVAAKLTHNKDVRDLFVDLVEKFVEPCRSDHWPLSDVRFFLNQYSASVHSLDGFRHQALWDRYMGTLRGCLLRLYHD [FIBP] ... -0.13

Query :: Entry MDDSETGFNLKVVLVSFKQCLDEKEEVLLDPYIASWKGLVRFLNSLGTIFSFISKDVVSKLRIMERLRGGPQSEHYRSLQAMVAHELSNRLVDLERRSHHPESGCRTVLRLHRALHWLQLFLEGLRTSPEDARTSALCADSYNASLAAYHPWVVRRAVTVAFCTLPTREVFLEAMNVGPPEQAVQMLGEALPFIQRVYNVSQKLYAEHSLLDLP [CPTP] has what solubility change mitosis (log2)?
Result :: -0.256
